Tested on: DMS-114 complex spheroids with HUVEC/MSC, growth % test/control
protocolNotes: Anticancer human tumor DMS-114 cell line growth inhibition [AhR];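 note: spheroids exposed to agents for 7 days before readout; 100% = DMSO vehicle control wells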
studyConditions: second compound 10 µM; first compound 1 µM; active compounds read low
endpoint: viability, T/C (%)
Quick note: give the figure in %, leave out the unit.

# count of solved cases: 5
• CC1COCCN1c1cc(C2(S(C)(=N)=O)CC2)nc(-c2ccnc3[nH]ccc23)n1 (stereo unspecified) + CC(CO)NC(=O)c1cc(-c2ccc(Cl)cc2)nn(-c2cnn(C)c2)c1=O = 61.1
• CC1COCCN1c1cc(C2(S(C)(=N)=O)CC2)nc(-c2ccnc3[nH]ccc23)n1 (stereo unspecified) + Cc1cncc(-c2nc(NCCc3c[nH]c4ccccc34)c3ncn(C(C)C)c3n2)c1 = 41.7
• COc1cc(Nc2ncc3c(n2)-c2ccc(Cl)cc2C(c2c(F)cccc2OC)=NC3)ccc1C(=O)O + Cc1ccccc1N=Nc1ccc(NC(=O)c2ccnn2C)c(C)c1 = 87.1
• O=C(C=Cc1cccc(S(=O)(=O)Nc2ccccc2)c1)NO + CC(CO)NC(=O)c1cc(-c2ccc(Cl)cc2)nn(-c2cnn(C)c2)c1=O = 35
• COc1cc(Nc2ncc3c(n2)-c2ccc(Cl)cc2C(c2c(F)cccc2OC)=NC3)ccc1C(=O)O + CC(CO)NC(=O)c1cc(-c2ccc(Cl)cc2)nn(-c2cnn(C)c2)c1=O = 61.5

(Q) Requested field: viability, T/C. Item: CC(C)c1c(-c2ccccc2)nc2c(C#N)c[nH]n2c1=O + CC(CO)NC(=O)c1cc(-c2ccc(Cl)cc2)nn(-c2cnn(C)c2)c1=O
(A) 104

(Q) Requested field: viability, T/C. Item: CC1COCCN1c1cc(-c2ccnn2C)c2ccnc(-c3ccn[nH]3)c2n1 (stereo unspecified) + Cc1ccccc1N=Nc1ccc(NC(=O)c2ccnn2C)c(C)c1
(A) 41

(Q) Requested field: viability, T/C. Item: COc1ccc([C@@H](O)c2cc(-c3ncnc4cc(N5CCOCC5)ccc34)c(F)cc2Cl)nn1 + Cc1cncc(-c2nc(NCCc3c[nH]c4ccccc34)c3ncn(C(C)C)c3n2)c1
(A) 29.7

(Q) Requested field: viability, T/C. Item: COc1cc(Nc2ncc3c(n2)-c2ccc(Cl)cc2C(c2c(F)cccc2OC)=NC3)ccc1C(=O)O + Cc1cncc(-c2nc(NCCc3c[nH]c4ccccc34)c3ncn(C(C)C)c3n2)c1
(A) 34.3
